Some compounds, each annotated with its measured Plant response rating: Oilseed Rape.
# Tested on: oilseed rape
# assay.procedure: Test D preemergence
# Type: in vivo, Brassica napus
# condition.description: 125 g ai/ha, scale 0 to 100
# From the text: […]

Entry Fc1ccc(-c2nc(OCC(F)(F)F)n(Cc3ccnc(C(F)(F)F)c3)n2)cc1 [Compound 30] has what Plant response rating: Oilseed Rape?
55

What Plant response rating: Oilseed Rape value was documented for this compound, COc1nc(-c2ccc(Cl)cc2)nn1Cc1ccnc(C(F)(F)F)c1 [Compound 28] ?
15

Form field: reported Plant response rating: Oilseed Rape of FC(F)(F)COc1nc(-c2ccccc2)nn1Cc1ccnc(C(F)(F)F)c1 [Compound 24]
70

Please report the recorded Plant response rating: Oilseed Rape for CCOc1nc(-c2ccc(C(F)(F)F)cc2)nn1Cc1ccnc(C(F)(F)F)c1 [Compound 35] .
100

* * *

Reported Plant response rating values for the following compounds.
# System: corn
# assay.procedure: Test E preemergence
# Type: in vivo, Zea mays
# condition.description: 62 g ai/ha, scale 0 to 100

Example cases with answers are listed next.
>>> reported_value("CCOc1nc(-c2ccccc2)nn1Cc1ccnc(C(F)(F)F)c1 [Compound 27]")
25
>>> reported_value("Fc1ccc(-c2nc(OCC(F)(F)F)n(Cc3ccnc(C(F)(F)F)c3)n2)cc1 [Compound 30]")
0
>>> reported_value("CCCc1nc(-c2ccc(F)cc2)nn1Cc1ccnc(C(F)(F)F)c1 [Compound 6]")
30

We next turn to a different compound, shown below.
Value wanted: Plant response rating (corn) of entry CCOc1nc(-c2ccc(F)cc2)nn1Cc1ccnc(C(F)(F)F)c1 [Compound 8]
25

* * *

Overview of reported Plant response rating: Chamomile across a group of compounds:
# Tested on: chamomile
# assay.procedure: Test D preemergence
# Format: in vivo, Matricaria inodora
# condition.description: 62 g ai/ha, scale 0 to 100

Please review the following examples before continuing.
>>> reported_value("CCOc1nc(-c2ccccc2)nn1Cc1ccnc(C(F)(F)F)c1")
100
>>> reported_value("FC(F)(F)COc1nc(-c2ccc(Cl)cc2)nn1Cc1ccnc(C(F)(F)F)c1")
100
>>> reported_value("FC(F)(F)COc1nc(-c2ccccc2)nn1Cc1ccnc(C(F)(F)F)c1")
85

Here's the next entry for you.
Query (compound): CCOc1nc(-c2ccc(F)cc2)nn1Cc1ccnc(C(F)(F)F)c1 ; field requested: Plant response rating: Chamomile
30

* * *

Below: a set of entries, each annotated with reported Plant response rating.
# Test system: kochia
# assay.procedure: Test E preemergence
# Format: in vivo, Kochia scoparia
# condition.description: 31 g ai/ha, scale 0 to 100
Reply with just the number.

>>> reported_value("CCCc1nc(-c2ccc(F)cc2)nn1Cc1ccnc(C(F)(F)F)c1 [Compound 6]")
80
>>> reported_value("CCOc1nc(-c2ccccc2)nn1Cc1ccnc(C(F)(F)F)c1 [Compound 27]")
90
>>> reported_value("Fc1ccc(-c2nc(OCC(F)(F)F)n(Cc3ccnc(C(F)(F)F)c3)n2)cc1 [Compound 30]")
90

Field: next compound
// returns reported Plant response rating for input CCc1nc(-c2ccc(C(F)(F)F)cc2)nn1Cc1ccnc(C(F)(F)F)c1 [Compound 1]
60

* * *

Measured Plant response rating: Wheat, Winter, listed per entry for reference.
# Test system: wheat, winter
# assay.procedure: Test D postemergence
# Assay type: in vivo, Triticum aestivum
# condition.description: 125 g ai/ha, scale 0 to 100
Lab note: jot down the number only; don't add units.

>>> reported_value("CCOc1nc(-c2ccccc2)nn1Cc1ccnc(C(F)(F)F)c1")
30
>>> reported_value("CCOc1nc(-c2ccc(C(F)(F)F)cc2)nn1Cc1ccnc(C(F)(F)F)c1")
45
>>> reported_value("COc1nc(-c2ccc(Cl)cc2)nn1Cc1ccnc(C(F)(F)F)c1")
20

Attention now turns to another entry.
Value wanted: Plant response rating: Wheat, Winter (wheat, winter) of entry FC(F)(F)COc1nc(-c2ccccc2)nn1Cc1ccnc(C(F)(F)F)c1
20

* * *

// values below are reported Plant response rating, Barnyardgrass
# Tested on: barnyardgrass
# assay.procedure: Test A postemergence
# Format: in vivo, Echinochloa crus-galli
# condition.description: 125 g ai/ha, 0 to 100 scale (0 no effect, 100 complete control), approx. 10 d
Form: value (number only, do not type unit).

>>> reported_value("Cc1nc(-c2ccc(C(F)(F)F)cc2)nn1Cc1cccc(C(F)(F)F)c1")
0

Look up Plant response rating, Barnyardgrass for this compound: CCCc1nc(-c2ccc(F)c(F)c2)nn1Cc1ccnc(C(F)(F)F)c1
50

Field request: Plant response rating, Barnyardgrass | item: CCOc1nc(-c2ccc(Cl)cc2)nn1Cc1ccnc(C(F)(F)F)c1
70

Item under review: Fc1ccc(-c2nc(OCC(F)(F)F)n(Cc3ccnc(C(F)(F)F)c3)n2)cc1 . Reported Plant response rating, Barnyardgrass?
80

Field request: Plant response rating, Barnyardgrass | item: COc1nc(-c2ccc(OC(F)(F)F)cc2)nn1Cc1ccnc(C(F)(F)F)c1
0

Reported Plant response rating, Barnyardgrass, compound CCCn1nc(-c2ccc(F)cc2)nc1C(=O)c1ccnc(C(F)(F)F)c1 : ____
0

* * *

# System: crabgrass, large
# assay.procedure: Test A preemergence
# Format: in vivo, Digitaria sanguinalis
# condition.description: 500 g ai/ha, 0 to 100 scale (0 no effect, 100 complete control), approx. 10 d
Quick list: Plant response rating, Crabgrass, Large per entry.

Example molecules with recorded Plant response rating, Crabgrass, Large:
>>> reported_value("CCCc1nc(-c2ccc(Cl)cc2)nn1Cc1ccnc(C(F)(F)F)c1")
100
>>> reported_value("CCc1nc(-c2cccc(C(F)(F)F)c2)nn1Cc1ccnc(C(F)(F)F)c1")
90

Record request: Plant response rating, Crabgrass, Large value, item Cc1nc(-c2ccc(C(F)(F)F)cc2)nn1Cc1cccc(OC(F)(F)F)c1
0

Using the record for Cn1nc(-c2ccc(F)cc2)nc1Cc1ccnc(C(F)(F)F)c1 , report its Plant response rating, Crabgrass, Large.
100

Given the entry Cc1nc(-c2ccc(C(F)(F)F)cc2)nn1Cc1ccnc(C(F)(F)F)c1 , report its measured Plant response rating, Crabgrass, Large.
100

Request the reported Plant response rating, Crabgrass, Large associated with CSc1nc(-c2ccc(F)cc2)nn1Cc1ccnc(C(F)(F)F)c1
80

* * *

Entries and their Plant response rating (scale of 0 to 100 where 0 is no effect and 100 is complete control) values follow.
# Tested on: wheat (winter wheat)
# assay.procedure: Test C postemergence
# Type: in vivo, Triticum aestivum
# condition.description: 125 g ai/ha
Please reply with the number alone, leaving off any unit.

Worked examples follow.
>>> reported_value("COc1nc(-c2ccc(Cl)cc2)nn1Cc1ccnc(C(F)(F)F)c1 [Compound 28]")
5
>>> reported_value("COc1nc(-c2ccc(C(F)(F)F)cc2)nn1Cc1ccnc(C(F)(F)F)c1 [Compound 25]")
5
>>> reported_value("COc1nc(-c2ccccc2)nn1Cc1ccnc(C(F)(F)F)c1 [Compound 32]")
0

Now consider the entry below.
Sample CCOc1nc(-c2ccc(F)cc2)nn1Cc1ccnc(C(F)(F)F)c1 [Compound 8] — what was its Plant response rating (scale of 0 to 100 where 0 is no effect and 100 is complete control)?
30

* * *

# Test system: velvetleaf
# assay.procedure: Test A preemergence
# Assay type: in vivo, Abutilon theophrasti
# condition.description: Abutilon theophrasti, pre-emergence, 240 h, 125 g ai/ha, 0 to 100 scale (0 no effect, 100 complete control), read-out: Plant response rating, Velvetleaf
quantity.kind: pest or weed control at 125 g/ha (%)
Answer with a number only, understood to be in %.

>>> reported_value("CS(=O)(=O)c1nc(-c2ccc(F)cc2)nn1Cc1ccnc(C(F)(F)F)c1")
0
>>> reported_value("COc1nc(-c2ccc(F)cc2)nn1Cc1ccnc(C(F)(F)F)c1")
0
>>> reported_value("CCc1nc(-c2ccc(C(F)(F)F)cc2)nn1Cc1ccnc(C(F)(F)F)c1")
30
>>> reported_value("CCCc1nc(-c2ccc(F)cc2)nn1Cc1ccnc(C(F)(F)F)c1")
40

Moving on to the next compound.
Quick check: pest or weed control at 125 g/ha on velvetleaf, item CCn1nc(-c2ccc(F)cc2)nc1C(O)c1ccnc(C(F)(F)F)c1 (centres unmarked) ?
0

* * *

# Tested on: kochia
# assay.procedure: Test C postemergence
# Format: in vivo, Kochia scoparia
# condition.description: 250 g ai/ha
quantity.kind: Plant response rating (scale of 0 to 100 where 0 is no effect and 100 is complete control)
# output: bare number, no unit

# example entries with known answers
>>> reported_value("CCc1nc(-c2ccc(C(F)(F)F)cc2)nn1Cc1ccnc(C(F)(F)F)c1 [Compound 1]")
90
>>> reported_value("CCCc1nc(-c2ccc(F)cc2)nn1Cc1ccnc(C(F)(F)F)c1 [Compound 6]")
90

# lookup: Plant response rating (scale of 0 to 100 where 0 is no effect and 100 is complete control) of FC(F)(F)COc1nc(-c2ccccc2)nn1Cc1ccnc(C(F)(F)F)c1 [Compound 24]
90

Which Plant response rating (scale of 0 to 100 where 0 is no effect and 100 is complete control) reading was recorded for the compound Fc1ccc(-c2nc(OCC(F)(F)F)n(Cc3ccnc(C(F)(F)F)c3)n2)cc1 [Compound 30] ?
100
